# maps each entry to its Response bound at 50 nM mAb or Fab (RU)
Study Target: T1, hANGPTL4(26-148)-mFc (Homo sapiens, UniProt Q9BY76)
T1 construct: amino acid residues 26-148 of human ANGPTL4 fused in-line to mouse IgG2a (hANGPTL4-mFc)
T1 sequence (Q9BY76 with tags, fused parts or gaps): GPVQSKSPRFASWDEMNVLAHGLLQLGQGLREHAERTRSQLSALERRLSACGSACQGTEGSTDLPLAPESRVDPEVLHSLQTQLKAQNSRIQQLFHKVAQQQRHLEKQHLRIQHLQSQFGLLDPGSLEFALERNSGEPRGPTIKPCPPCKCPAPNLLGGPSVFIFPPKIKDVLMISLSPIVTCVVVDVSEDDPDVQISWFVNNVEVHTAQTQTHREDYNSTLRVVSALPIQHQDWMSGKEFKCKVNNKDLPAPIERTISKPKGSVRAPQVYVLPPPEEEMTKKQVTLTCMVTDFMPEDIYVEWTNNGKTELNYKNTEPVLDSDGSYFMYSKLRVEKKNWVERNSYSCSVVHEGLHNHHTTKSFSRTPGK
Measurement Protocol: BIACORE, full mAb or Fab over anti-mFc captured hANGPTL4(26-148)-mFc
Assay type: binding
Experimental Parameters: pH 5.75, 25° C., antigen captured 27 ± 0.6 RU
Output: the number by itself.

The cases that follow already have their Response bound at 50 nM mAb or Fab (RU) on record.
H1H284P Fab: Fab fragment of H1H284P prepared by papain digestion (antibody, V domains shown) VH: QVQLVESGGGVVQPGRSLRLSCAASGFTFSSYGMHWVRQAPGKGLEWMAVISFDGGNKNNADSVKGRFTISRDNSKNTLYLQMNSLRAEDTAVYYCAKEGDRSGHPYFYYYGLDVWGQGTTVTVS VL: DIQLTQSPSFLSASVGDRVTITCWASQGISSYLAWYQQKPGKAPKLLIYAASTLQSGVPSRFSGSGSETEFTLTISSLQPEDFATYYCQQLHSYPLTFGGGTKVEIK | 56
H1H268P: anti-hANGPTL4 antibody, hIgG1 isotype, HCVR/LCVR SEQ ID NOs 42/44 (antibody, V domains shown) VH: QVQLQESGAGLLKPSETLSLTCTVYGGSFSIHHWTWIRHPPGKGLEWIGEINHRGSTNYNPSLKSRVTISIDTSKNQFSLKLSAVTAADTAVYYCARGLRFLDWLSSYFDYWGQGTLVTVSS VL: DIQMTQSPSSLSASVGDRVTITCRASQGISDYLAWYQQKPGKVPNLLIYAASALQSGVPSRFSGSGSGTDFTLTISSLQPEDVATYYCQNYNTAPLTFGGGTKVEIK | 77

Input: Need Response bound at 50 nM mAb or Fab (RU) of H1H268P Fab: Fab fragment of H1H268P prepared by papain digestion (antibody, V domains shown) VH: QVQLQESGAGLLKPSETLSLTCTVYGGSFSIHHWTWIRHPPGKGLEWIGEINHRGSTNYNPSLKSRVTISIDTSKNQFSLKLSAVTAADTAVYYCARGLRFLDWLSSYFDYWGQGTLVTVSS VL: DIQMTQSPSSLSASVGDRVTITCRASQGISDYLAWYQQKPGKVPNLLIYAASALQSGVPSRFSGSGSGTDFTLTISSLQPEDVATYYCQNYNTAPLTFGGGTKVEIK , thanks.
Output: 20

Input: Here is the next molecule: H1H284P: anti-hANGPTL4 antibody, hIgG1 isotype, HCVR/LCVR SEQ ID NOs 90/92 (antibody, V domains shown) VH: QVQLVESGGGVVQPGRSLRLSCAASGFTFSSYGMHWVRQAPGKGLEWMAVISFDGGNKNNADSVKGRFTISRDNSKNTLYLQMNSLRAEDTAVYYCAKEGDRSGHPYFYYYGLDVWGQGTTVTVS VL: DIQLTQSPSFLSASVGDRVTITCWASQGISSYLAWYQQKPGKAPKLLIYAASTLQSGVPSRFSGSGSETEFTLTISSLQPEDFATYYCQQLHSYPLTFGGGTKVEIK
Output: 171

Origin of values: patent US9120851B2
